target: IL-17A/A (Homo sapiens, UniProt Q16552); construct: purchased Genscript Z03228; experiment: IL-17A/A HEK-Blue Cell Assay; type: cell-based; settings: HEK-Blue IL-17A reporter cell line, SEAP readout at A630, 20 hours incubation with IL-17A/A; top concentration 10 uM, 1 uM or 0.3 uM; read-out: IL-17A/A inhibition (pIC50) (converted)
Sequence (Q16552 24-155): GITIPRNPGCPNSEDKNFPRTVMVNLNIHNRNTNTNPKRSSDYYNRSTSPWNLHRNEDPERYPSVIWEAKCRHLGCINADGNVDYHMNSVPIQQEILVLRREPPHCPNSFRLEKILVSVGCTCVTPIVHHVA
Property Label: IC50

Answered cases to consult:
>  <Compound>
CCC(=O)N[C@H](Cc1ccc(NC(=O)[C@@H](NC(=O)C(F)(F)c2ccc(OC)cc2)C2CCCCC2)c(F)c1)C(=O)N1CCN(C)CC1 [Compound 206]

>  <Tested Target>
IL-17A/A (Homo sapiens, UniProt Q16552)

>  <IC50>
100 to 10000 nM

$$$$
>  <Compound>
CCn1nccc1C(=O)N[C@H](C(=O)Nc1ccc([C@H](C)[C@@H](NC(=O)C2(F)CC2)C(=O)N2CCN(C)CC2)cc1F)[C@H]1CC[C@H](C)CC1 [Compound 406]

>  <Tested Target>
IL-17A/A (Homo sapiens, UniProt Q16552)

>  <IC50>
10 to 100 nM

$$$$
>  <Compound>
CCC(=O)N[C@@H](C(=O)N1CCN(C)CC1)[C@@H](C)c1ccc(NC(=O)[C@@H](NC(=O)C(F)(F)c2ccc(OC)nc2)[C@H]2CC[C@H](C)CC2)c(F)c1 [Compound 295]

>  <Tested Target>
IL-17A/A (Homo sapiens, UniProt Q16552)

>  <IC50>
< 10 nM

$$$$
>  <Compound>
CCc1nonc1C(=O)N[C@H](C(=O)Nc1ccc([C@H](C)[C@@H](NS(=O)(=O)CC)C(=O)N2CCN(C)CC2)cc1F)[C@H]1CC[C@H](C)CC1 [Compound 518]

>  <Tested Target>
IL-17A/A (Homo sapiens, UniProt Q16552)

>  <IC50>
10 to 100 nM

$$$$
>  <Compound>
CCC(=O)N[C@@H](C(=O)N1CCN(C)CC1)[C@@H](C)c1ccc(NC(=O)[C@@H](NC(=O)c2ccnn2C2CCCC2)C2CCCCCC2)c(F)c1 [Compound 273]

>  <Tested Target>
IL-17A/A (Homo sapiens, UniProt Q16552)

>  <IC50>
< 10 nM

$$$$

Measured on IL-17A/A (Homo sapiens, UniProt Q16552), CCC(=O)N[C@H](Cc1ccc(NC(=O)[C@@H](NC(=O)c2ccnn2CC)C2CCCCC2)c(C)c1)C(=O)N1CCN(C)CC1 [Compound 766] has a documented IC50 of 100 to 10000 nM

The reported IL-17A/A (Homo sapiens, UniProt Q16552) IC50 of CCn1nccc1C(=O)N[C@H](C(=O)Nc1ccc([C@H](C)[C@@H](NC(=O)C(C)C2CC2)C(=O)N2CCN(C)[C@H](C)C2)cc1F)[C@H]1CC[C@H](C)CC1 (some centres unmarked) [Compound 434] is < 10 nM

IL-17A/A (Homo sapiens, UniProt Q16552) data for CCC(=O)N[C@@H](C(=O)N1CCC(C)(O)CC1)[C@@H](C)c1ccc(NC(=O)[C@@H](NC(=O)C(F)(F)c2cncs2)[C@H]2CC[C@H](C)CC2)c(F)c1 [Compound 378] ; its IC50: 10 to 100 nM

Entry CCC(=O)N[C@@H](C(=O)N1CCN(C)CC1)C(OC)c1ccc(NC(=O)[C@@H](NC(=O)c2ccnn2CC)[C@H]2CC[C@H](C)CC2)c(F)c1 (single isomer, unassigned) [Compound 614] , tested on IL-17A/A (Homo sapiens, UniProt Q16552), has a reported IC50 of 100 to 10000 nM

Record CCC(=O)N[C@@H](C(=O)N1CCN(C)CC1)[C@@H](C)c1ccc(NC(=O)[C@@H](NC(=O)c2conc2C2(C)COC2)[C@H]2CC[C@H](C)CC2)c(F)c1 [Compound 397] / IL-17A/A (Homo sapiens, UniProt Q16552), IC50 recorded as 10 to 100 nM

Lab entry: IL-17A/A (Homo sapiens, UniProt Q16552) assay, compound CCC(=O)N[C@@H](C(=O)N1CCN(C)CC1)[C@@H](C)c1ccc(NC(=O)C(NC(=O)c2nonc2CC)C2CCc3cc(F)ccc32)c(F)c1 (single isomer, unassigned) [Compound 570] , IC50 = < 10 nM
